Test: Maximum tolerated dose in mice
Settings: nu/nu, mouse, in vivo, oral
reported.endpoint: MTD (mg/kg)
Quick reminder: number only, in mg/kg, skip the unit.

Prompt: // returns reported MTD for input O=C(NCc1cccnc1)Nc1ccc(COc2ccccc2-c2ccccc2)cc1 [Exemplary Compound A]
Completion: 75

----------
Test system: cancer cell lines
Assay: Standard Cytotoxicity Assay for other cancer cell types (TC50, CellTiter-Glo)
Assay type: cell-based
Conditions: U266 cells (myeloma); 3 day; read-out: Cmpd A 3 day TC50
reported.endpoint: CC50 (µM)
Quick reminder: number only, in µM, skip the unit.

Prompt: // returns reported CC50 for input O=C(NCc1cccnc1)Nc1ccc(COc2ccccc2-c2ccccc2)cc1
Completion: 0.0103

----------
Tested on: HCT116 cells
Assay: NAD measured in cellular lysates (NAD depletion) of HCT116 cells
Format: cell-based, human
Settings: Homo sapiens, HCT-116, 24 h, HCT116 cells, 24 h, absence of 10 μM NA; read-out: IC50 NAD depletion
reported.endpoint: pIC50
Note on units: pIC50 is unitless, being -log10 of a concentration expressed in mol/L.

Prompt: // returns reported pIC50 for input O=C(NCc1cccnc1)Nc1ccc(COc2ccccc2-c2ccccc2)cc1
Completion: 9.59

----------
Tested on: cancer cell lines
Test: Standard Cytotoxicity Assay for other cancer cell types (TC50, CellTiter-Glo)
Type: cell-based
Details: OVCAR-8 cells (ovary); 3 day; read-out: Cmpd A 3 day TC50
reported.endpoint: CC50

Prompt: // returns reported CC50 for input O=C(NCc1cccnc1)Nc1ccc(COc2ccccc2-c2ccccc2)cc1
Completion: < 800 pM

----------
Tested on: HCT116 cells
Experiment: NAD measured in cellular lysates (NAD depletion) of HCT116 cells
Assay type: cell-based, human
Settings: Homo sapiens, HCT-116, 48 h, after 48 h exposure; read-out: potency (IC50) for NAD depletion
reported.endpoint: IC50

Prompt: // returns reported IC50 for input O=C(NCc1cccnc1)Nc1ccc(COc2ccccc2-c2ccccc2)cc1 [Exemplary Compound A]
Completion: ~0.6 nM

----------
Test system: cancer cell lines
Experiment: Standard Cytotoxicity Assay for other cancer cell types (TC50, CellTiter-Glo)
Assay type: cell-based
Conditions: SU-DHL-10 cells (lymphoma); 3 day; read-out: Cmpd A 3 day TC50
reported.endpoint: CC50 (pM)
Quick reminder: number only, in pM, skip the unit.

Prompt: // returns reported CC50 for input O=C(NCc1cccnc1)Nc1ccc(COc2ccccc2-c2ccccc2)cc1
Completion: 830

----------
Test system: cancer cell lines
Test: Standard Cytotoxicity Assay for other cancer cell types (TC50, CellTiter-Glo)
Type: cell-based
Details: OVCAR-3 cells (ovary); 3 day; read-out: Cmpd A 3 day TC50
reported.endpoint: CC50

Prompt: Param readout = CC50; param system = cancer cell lines; param query = O=C(NCc1cccnc1)Nc1ccc(COc2ccccc2-c2ccccc2)cc1 [Exemplary Compound A] ; response: value
Completion: < 800 pM

----------
System: cancer cell lines
Assay: Standard Cytotoxicity Assay for other cancer cell types (TC50, CellTiter-Glo)
Format: cell-based
Details: U-937 cells (lymphoma); 3 day; read-out: Cmpd A 3 day TC50
reported.endpoint: CC50

Prompt: // returns reported CC50 for input O=C(NCc1cccnc1)Nc1ccc(COc2ccccc2-c2ccccc2)cc1
Completion: 0.89 nM

----------
Assay: Standard Cytotoxicity Assay for other cancer cell types (TC50, CellTiter-Glo)
Format: cell-based
Settings: keratinocytes (primary skin cells), keratinocytes (primary skin); 7 day; read-out: Cmpd A 7 day TC50
Description: Approximately 24 hours later, test compound was added from serial dilutions prepared in DMSO from DMSO stock solutions.
reported.endpoint: CC50 at 7 day

Prompt: // returns reported CC50 at 7 day for input O=C(NCc1cccnc1)Nc1ccc(COc2ccccc2-c2ccccc2)cc1 [Exemplary Compound A]
Completion: < 0.4 nM
